inhibition for assorted compounds
# RUN DESCRIPTION: growth suppression of yeast trafficking mutant, preliminary HTS, modulators of trafficking downstream of Golgi apparatus project, 1536-format plate, OD 615 nm (AID 637); note: test concentration not given here
# ASSAY SETUP: yeast transport mutant growth, absorbance 615 nm, 18 h; active compounds read high
MEASURED PARAMETER: inhibition (%)

> print(dat)
                                    compound  value.measured
 1  Cc1cccc(C2CC(c3ccc(Cl)cc3)Nc3nc(N)nn32)c1 (configuration not stated)           -5.25
 2     Cc1cccc(OCC(=O)Nc2ccc(N3CCCC3)cc2)c1C            1.64
 3  Cc1ccc(CNC(=O)C2CCCN(S(=O)(=O)c3cnc[nH]3)C2)cc1 (configuration not stated)           -3.61
 4  CCN(C1CCCCC1)S(=O)(=O)c1ccc(S(=O)(=O)N2CCN(CCC#N)CC2)cc1            -3.5
 5  COCCn1c(SCC(=O)N2CCc3ccccc32)nc2c(c1=O)SC(C)C2 (configuration not stated)              -2
 6  Cc1nc2ccc(S(=O)(=O)NC(C(=O)Nc3nccs3)C(C)C)cc2s1 (configuration not stated)           -0.17
 7  Cc1cccc(N2CCN(C(=O)c3cc4ccccc4oc3=O)CC2)c1C           -7.67
 8  COc1cccc(C2C3=C(N=C4SCC(=O)N42)c2ccccc2CC3)c1OC (configuration not stated)           -6.83
 9  CC(=O)OC1c2ccccc2C(=O)N1Cc1ccccc1Cl (configuration not stated)           -4.83
10  O=c1c2ccccc2nc(SCc2nc(-c3ccccc3)no2)n1-c1ccc(F)cc1            2.17
11  COc1ccc(N2CCN(C(=O)C(C)(C)Oc3ccc(Cl)cc3)CC2)cc1           -2.83
12        CC(C)=CC(=O)OCC(=O)NC(=O)NC(C)(C)C           -3.97
13  COC(=O)Cn1c(CN2CCOCC2)nc2c1c(=O)n(C)c(=O)n2C              -2
14  Cc1ccc(C)c(N2CCN(CCCNC(=O)Cn3cc4c(n3)CCCCC4)CC2)c1               4
15           COC(=O)c1ccc(NC(=O)CN2CCCC2)cc1           -1.13
16  Cc1noc(/C=C/N(C)C)c1S(=O)(=O)N1CCc2ccccc21           -3.83
17  Cc1onc(-c2c(Cl)cccc2Cl)c1C(=O)NCC1CCCO1 (configuration not stated)           -5.74
18  CCOC(=O)c1cc2c(=O)n3ccccc3nc2n(Cc2ccccc2)c1=N           -3.28
19  CCOc1ccc(-c2cc(CCCC(=O)N3CCN(c4ccc(OC)cc4)CC3)no2)cc1           -2.67
20              O=P(O)(CN1CCCCCC1)CN1CCCCCC1           -0.82
21  CCOC(=O)C1CCN(C(=O)CN(c2ccc(Cl)c(C(F)(F)F)c2)S(C)(=O)=O)CC1            -2.5
22  CCOc1ccccc1C1C(C(=O)Nc2ccc(OC)cc2)=C(C)Nc2nc(CCCO)nn21 (configuration not stated)           -2.17
